Consider the following binders; for each one, report its Neutralization IC50 (RSV subtype A).
assayed system: Respiratory Syncytial Virus fusion glycoprotein (RSV F) on RSV-A2 virus (Respiratory Syncytial Virus subtype A (RSV-A2))
test details: cell-based or functional assay

binder: ADI-41160 (antibody, V domains shown) VH: QVQLVQSGAEVKKPGSSVKVSCKASGGTFSSYPIIWVRQAPGQGLEWMGRIIPILGIASYAQKFQGRVTITADKSTSTAYMELSSLRSEDTAVYYCARNSDFYYGMDVWGQGTTVTVSS VL: QSALIQPASVSGSPGQSITISCTGTSSDVGGYNYVSWYQHHPGKAPKLMIYDVSNRPSGISNRFSGSKSGNTASLTISGLQAEDEADYYCSSYTSSSLYVFGTGTKVTVL
Neutralization IC50 (RSV subtype A): > 25 µg/mL

binder: ADI-41204 (antibody, V domains shown) VH: EVQLLESGGGLVKPGGSLRLSCAASGFTFSSYSMNWVRQAPGKGLEWVSSISAGSSYIYYADSVKGRFTISRDNAKNSLYLQMNSLRAEDTAVYYCARVPSYETTPYFDYWGQGTLVTVSS VL: QSVLTQPPSVSGAPGQRVTISCTGSSSNIGSGYDLHWYQQLPGTAPKLLIYVNSNRPSGVPDRFSGSKSGTSASLAITGLQAEDEADYYCQSYDSSLSGYVFGTGTKVTVL
Neutralization IC50 (RSV subtype A): 0.06 µg/mL

Could you now consider this next binder?
Using the record for ADI-41175 (antibody, V domains shown) VH: EVQLLESGGGVVQPGRSLRLSCATSGFTFSSYGMHWVRQAPGKGLEWVAVIYYEGSNKYYGDSVKGRFTISRDNSKSTLYLQMNRLRAEDTAVYYCARRPAGGFDYWGPGTLVTVSS VL: EIVMTQSPLSLPVTPGEPASISCRSSQNLLNSNGYNYLDWYLQKPGQSPQLLIYLGSNRASGVPDRFSGSGSGTDFTLKISRVEAEDVGVYYCMQALQTPYTFGQGTKLEIK , report its Neutralization IC50 (RSV subtype A).
> 25 µg/mL

Reference source: patent US20260258115A1
